# credit: patent US6156724A

cytoxicity to lymphocytes LcV, LC50 by entry:
System: Balb/c splenocytes (resting lymphocytes)
PROCEDURE TEXT: Lymphocyte viability (LcV) assay
Format: cell-based, murine
ASSAY CONDITIONS: unstimulated Balb/c splenocytes, MTT; highest concentration 10 μg/mL
Numbered stars: 1 amine (or outer) side, 2 acyl side, 3 side chain; on linkers, the order of the positions; unused ones are H or OH. Bridge positions count the residues as written; N and C are the ends. Square brackets hold non-standard residues; d marks the D form. Peptide text beside a SMILES is read from it. * marks the point of attachment. X2 = CC[C@H](C)[C@@H](N[*:1])[C@@H](O)CC(=O)O[C@@H](C(=O)[C@H](C)C(=O)[*:2])C(C)C; X1 = CC[C@H](C)[C@@H](N[*:1])[C@@H](O)CC(=O)O[C@H](C(=O)[C@H](C)C(=O)[*:2])C(C)C; NMeY = CN[C@@H](Cc1ccc(O)cc1)C(=O)O; dNMeL = CN[C@H](CC(C)C)C(=O)O; Isobutyryl = CC(C)C(=O)*; Cbz = O=C(OCc1ccccc1)*; Hexanoyl = CCCCCC(=O)*

// known answers, use as guide
| COMPOUND | MEASURED TARGET | RECORDED VALUE |
| --- | --- | --- |
| CC[C@H](C)[C@H]1NC(=O)[C@@H](NC(=O)[C@@H](CC(C)C)N(C)C(=O)[C@@H](N)CC(C)C)[C@@H](C)OC(=O)[C@H](Cc2ccc(OC)cc2)N(C)C(=O)[C@@H]2CCCN2C(=O)[C@H](CC(C)C)NC(=O)[C@@H](C)C(=O)[C@H](C(C)C)OC(=O)C[C@@H]1O [Compound 27, N-(L-Leu)Didemnin A] (H-L[dNMeL]T[X1]LP[NMeY](Me); ester 3-C) | Balb/c splenocytes (resting lymphocytes) | > 10 µg/mL |
| CC[C@H](C)[C@H]1NC(=O)[C@@H](NC(=O)[C@@H](CC(C)C)N(C)C(=O)[C@@H]2CCCN2C(=O)[C@H](C)O)[C@@H](C)OC(=O)[C@H](Cc2ccc(OC)c(I)c2)N(C)C(=O)[C@@H]2CCCN2C(=O)[C@H](CC(C)C)NC(=O)[C@@H](C)C(=O)[C@H](C(C)C)OC(=O)C[C@@H]1O | Balb/c splenocytes (resting lymphocytes) | > 10 µg/mL |
| CCCCCC(=O)N(C)[C@H](CC(C)C)C(=O)N[C@@H]1C(=O)N[C@H]([C@@H](C)CC)[C@@H](O)CC(=O)O[C@@H](C(C)C)C(=O)[C@H](C)C(=O)N[C@@H](CC(C)C)C(=O)N2CCC[C@H]2C(=O)N(C)[C@@H](Cc2ccc(OC)cc2)C(=O)O[C@@H]1C [Compound 22, N^α -Hexanoyldidemnin A] (Hexanoyl-[dNMeL]T[X1]LP[NMeY](Me); ester 2-C) | Balb/c splenocytes (resting lymphocytes) | > 10 µg/mL |
| CC[C@H](C)[C@H]1NC(=O)[C@@H](NC(=O)[C@@H](CC(C)C)NC)[C@@H](C)OC(=O)[C@H](Cc2ccc(OC)cc2)N(C)C(=O)[C@@H]2CCCN2C(=O)[C@H](CC(C)C)NC(=O)[C@@H](C)C(=O)[C@H](C(C)C)OC(=O)C[C@@H]1O [Compound 2, Didemnin A] (H-[dNMeL]T[X1]LP[NMeY](Me); ester 2-C) | Balb/c splenocytes (resting lymphocytes) | > 10 µg/mL |

Read off the recorded cytoxicity to lymphocytes LcV, LC50 for CC[C@H](C)[C@H]1NC(=O)[C@@H](NC(=O)[C@@H](CC(C)C)N(C)C(=O)[C@@H]2CCCN2C(C)=O)[C@@H](C)OC(=O)[C@H](Cc2ccc(OC)cc2)N(C)C(=O)[C@@H]2CCCN2C(=O)[C@H](CC(C)C)NC(=O)[C@@H](C)C(=O)[C@H](C(C)C)OC(=O)C[C@@H]1O [Compound 31, [Acetyl^9]Didemnin B] (Ac-P[dNMeL]T[X1]LP[NMeY](Me); ester 3-C) 3.10 µg/mL

Answer with reported cytoxicity to lymphocytes LcV, LC50 of CC[C@H](C)[C@H]1NC(=O)[C@@H](NC(=O)[C@@H](CC(C)C)N(C)C(=O)[C@H](C)NC(=O)[C@H](C)O)[C@@H](C)OC(=O)[C@H](Cc2ccc(OC)cc2)N(C)C(=O)[C@@H]2CCCN2C(=O)[C@H](CC(C)C)NC(=O)[C@@H](C)C(=O)[C@H](C(C)C)OC(=O)C[C@@H]1O [Compound 35, [L-Ala^8]Didemnin B] > 10 µg/mL

Fill in cytoxicity to lymphocytes LcV, LC50 for record CC[C@H](C)[C@H]1NC(=O)[C@@H](NC(=O)[C@@H](CC(C)C)N(C)C(=O)[C@@H]2CCCN2C(=O)C(C)O)[C@@H](C)OC(=O)[C@H](Cc2ccc(OC)cc2)N(C)C(=O)[C@@H]2CCCN2C(=O)[C@H](CC(C)C)NC(=O)[C@@H](C)C(=O)[C@H](C(C)C)OC(=O)C[C@@H]1O (some centres unmarked) 7.00 µg/mL

Tell us which cytoxicity to lymphocytes LcV, LC50 value is on record for CC[C@H](C)[C@H]1NC(=O)[C@@H](NC(=O)[C@@H](CC(C)C)N(C)C(=O)[C@@H]2CCCN2C(=O)[C@H](C)O)[C@@H](C)OC(=O)[C@H](Cc2ccc(OC)cc2)N(C)C(=O)[C@@H]2CCCN2C(=O)[C@H](CC(C)C)NC(=O)[C@@H](C)C(=NO)[C@H](C(C)C)OC(=O)C[C@@H]1O [Compound 11, [Hip^3 oxime]Didemnin B] > 10 µg/mL

Annotate the compound CC[C@H](C)[C@H]1NC(=O)[C@@H](NC(=O)[C@@H](CC(C)C)N(C)C(=O)[C@@H]2CCCN2C(=O)C(C)C)[C@@H](C)OC(=O)[C@H](Cc2ccc(OC)cc2)N(C)C(=O)[C@@H]2CCCN2C(=O)[C@H](CC(C)C)NC(=O)[C@@H](C)C(=O)[C@H](C(C)C)OC(=O)C[C@@H]1O [Compound 33, [Isobutyryl^9]Didemnin B] (Isobutyryl-P[dNMeL]T[X1]LP[NMeY](Me); ester 3-C) with its measured cytoxicity to lymphocytes LcV, LC50. 2.40 µg/mL

Provide one value: measured cytoxicity to lymphocytes LcV, LC50 of CC[C@H](C)[C@H]1NC(=O)[C@@H](NC(=O)[C@@H](CC(C)C)NC)[C@@H](C)OC(=O)[C@H](Cc2ccc(OC)cc2)N(C)C(=O)[C@@H]2CCCN2C(=O)[C@H](CC(C)C)NC(=O)[C@@H](C)C(=O)[C@@H](C(C)C)OC(=O)C[C@@H]1O [Compound 12, Epididemnin A1] (H-[dNMeL]T[X2]LP[NMeY](Me); ester 2-C) > 10 µg/mL

Quote cytoxicity to lymphocytes LcV, LC50 reported for CC[C@H](C)[C@H]1NC(=O)[C@@H](NC(=O)[C@@H](CC(C)C)N(C)C(=O)OCc2ccccc2)[C@@H](C)OC(=O)[C@H](Cc2ccc(OC)cc2)N(C)C(=O)[C@@H]2CCCN2C(=O)[C@H](CC(C)C)NC(=O)[C@@H](C)C(=O)[C@H](C(C)C)OC(=O)C[C@@H]1O [Compound 3, Z-Didemnin A] (Cbz-[dNMeL]T[X1]LP[NMeY](Me); ester 2-C) please. 8.10 µg/mL
